Values compiled from patent US20220088148A1.

target: human GLP-1 receptor (human, UniProt P43220 24-463); test: cell-based or functional assay
Bridges are numbered along the chain shown (N, C = ends). Where no end group is shown, it is not given here. [ ]: non-standard residue; d: D form. The star is where a group is joined. Acetyl(2-(4-imidazolyl)) = O=C(Cc1c[nH]cn1)*; Aib = CC(C)(N)C(=O)O
# label = Satisfied if In vitro activity (%) vs. GLP-1, cAMP EC50 >= 30% else Not satisfied

Inquiry: Tell me whether In vitro activity (%) vs. GLP-1, cAMP EC50 is at least 30% here: {Acetyl(2-(4-imidazolyl))}-[Aib]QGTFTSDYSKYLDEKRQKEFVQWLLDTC (bridge 15-19) [triple agonist of SEQ ID NO: 82]
Reply text: Not satisfied

Inquiry: Check the entry H[Aib]QGTFTSDVSKYLDGQAAQEFVAWLLAGC [triple agonist of SEQ ID NO: 9] : does In vitro activity (%) vs. GLP-1, cAMP EC50 equal or exceed 30%?
Reply text: Satisfied

Inquiry: # bool: In vitro activity (%) vs. GLP-1, cAMP EC50 of Y[Aib]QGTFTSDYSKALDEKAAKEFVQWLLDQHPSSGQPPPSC (bridge 16-20) [triple agonist of SEQ ID NO: 100] >= 30%
Reply text: Satisfied

Inquiry: Is the recorded value of In vitro activity (%) vs. GLP-1, cAMP EC50 equal to or greater than 30% for this binder? [Acetyl(2-(4-imidazolyl))]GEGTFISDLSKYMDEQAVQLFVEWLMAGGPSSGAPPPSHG [triple agonist of SEQ ID NO: 12]
Reply text: Not satisfied

Continuing:
Inquiry: Threshold query (In vitro activity (%) vs. GLP-1, cAMP EC50 >= 30%) on Y[Aib]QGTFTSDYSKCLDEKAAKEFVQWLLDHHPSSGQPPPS (bridge 16-20; ends not checked) [triple agonist of SEQ ID NO: 68]
Reply text: Not satisfied
